Every entry's value here was drawn from paper PMC2193020.

- measurementTarget: I-A^s (Mus musculus, UniProt P06345+P14437)
- Sequence (P14437 whole entry): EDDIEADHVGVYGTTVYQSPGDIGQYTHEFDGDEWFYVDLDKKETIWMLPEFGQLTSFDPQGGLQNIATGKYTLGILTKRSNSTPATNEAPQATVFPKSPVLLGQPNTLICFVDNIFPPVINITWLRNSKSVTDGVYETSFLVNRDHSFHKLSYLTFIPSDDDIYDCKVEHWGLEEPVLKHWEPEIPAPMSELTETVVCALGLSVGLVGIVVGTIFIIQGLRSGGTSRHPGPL
- Sequence (P06345 28-263): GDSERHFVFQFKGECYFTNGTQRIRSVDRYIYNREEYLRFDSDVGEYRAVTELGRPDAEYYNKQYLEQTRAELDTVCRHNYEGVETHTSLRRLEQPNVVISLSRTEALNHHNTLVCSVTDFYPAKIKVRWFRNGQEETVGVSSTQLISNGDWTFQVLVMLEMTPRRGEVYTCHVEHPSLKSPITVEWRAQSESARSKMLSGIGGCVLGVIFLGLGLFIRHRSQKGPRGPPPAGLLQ
- methodDescription: Class II peptide binding assay on purified I-A^s molecules
Ends that are not written are not given here.
reportedMetric: IC50
Could you write the number and then its unit?

Reported IC50 for IGGRVHFFRDISPIG [HPV 40] was 180 nM

For record IGGRVHFFKDISPIA [HPV 7] the listed IC50 is 208 nM
